- test parameters: buffer; pH 7.4; 200.0 µM
metric: solubility kinetic

[
  {
    "compound": "Cc1cccnc1NC(=O)c1ccc(Cl)c(S(=O)(=O)N2CCCC2)c1",
    "metric": "solubility kinetic",
    "readout value": "> 57 µg/mL"
  },
  {
    "compound": "Cc1nc(C)c(C(=O)OCC(=O)Nc2ccccc2)s1",
    "metric": "solubility kinetic",
    "readout value": "> 43.6 µg/mL"
  },
  {
    "compound": "Cc1ccccc1CN(C)C(=O)c1ccc2ccccc2n1",
    "metric": "solubility kinetic",
    "readout value": "> 43.6 µg/mL"
  },
  {
    "compound": "Cc1c(C)n(Cc2ccccc2)c2ccc(C(=O)O)cc12",
    "metric": "solubility kinetic",
    "readout value": "> 41.9 µg/mL"
  },
  {
    "compound": "O=C(NCc1ccccn1)Nc1ccc(F)cc1F",
    "metric": "solubility kinetic",
    "readout value": "> 39.5 µg/mL"
  },
  {
    "compound": "Cc1cc(NC(=O)c2ccco2)c(=O)n(Cc2cccc(C(F)(F)F)c2)c1",
    "metric": "solubility kinetic",
    "readout value": "< 0.4 µg/mL"
  },
  {
    "compound": "CN(C)C(=O)c1cnc(-c2ccccc2)nc1-c1ccccc1",
    "metric": "solubility kinetic",
    "readout value": "> 45.5 µg/mL"
  },
  {
    "compound": "CNc1snc(C)c1C(=O)OCC(=O)N(C)c1ccccc1",
    "metric": "solubility kinetic",
    "readout value": "> 47.9 µg/mL"
  },
  {
    "compound": "N#CCCN(Cc1ccccc1)C(=O)c1nccnc1C(=O)O",
    "metric": "solubility kinetic",
    "readout value": "> 46.5 µg/mL"
  },
  {
    "compound": "CC1(C(=O)NCC2CCCO2)Oc2cccnc2NC1=O (stereo not given)",
    "metric": "solubility kinetic",
    "readout value": "> 43.7 µg/mL"
  }
]

These data points were gathered from PubChem BioAssay AID1996.
